# procedure-summary: Rat ibudilast plasma PK and tissue distribution (plasma, muscle, brain, spinal cord)
# Assay type: in vivo
# reported-conditions: male, Sprague-Dawley, rat, ip; 5 mg/kg i.p.; plasma, muscle, brain, spinal cord; read-out: elimination half-life in all tissue compartments
# Method: Test Agents: Ibudilast was prepared in 15% ethanol/saline. Drug stability and concentration were validated by HPLC/MS/MS. Animals: Pathogen-free adult male Sprague-Dawley rats (280-350 g; Harlan Labs) were used in all experiments. Rats were housed in temperature (23+/−3° C.) and light (12:12 light: dark; lights on at 0700 hr) controlled rooms with standard rodent chow and water available ad libitum. Behavioral testing was performed during the light cycle. […]
experimental-endpoint: half-life

Recorded half-life for CC(C)C(=O)c1c(C(C)C)nn2ccccc12 [Ibudilast] , please?
1.67 to 2.32 h
